These entries and their values trace back to PubChem BioAssay AID2060513.

Item-by-item account of viability, T/C
system: 299254-011-R-J1-PDC complex spheroids viability; assay: Anticancer human tumor 299254-011-R-J1-PDC patient-derived melanoma cell line growth inhibition [GQUAD]; details: second compound 0.316 µM; first compound 0.0316 µM; stronger effect = lower value;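 also: spheroids exposed to the agents for seven days before readout; percent viability relative to DMSO vehicle control wells = 100%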
Only the number, expressed in %, is required.

// below: answered compounds
>  <Compound>
COc1cccc2c1C(=O)c1c(O)c3c(c(O)c1C2=O)CC(O)(C(=O)CO)CC3OC1CC(N)C(O)C(C)O1 (stereo not given) + Cc1cnc(CNC(=O)c2c(=O)c3ccc(N4CCCN(C)CC4)nc3n3c2sc2ccccc23)cn1

>  <Scale unit>
%

>  <viability, T/C>
83.3

$$$$
>  <Compound>
CC(C)(O)C1CCC(Nc2ccc3ncc(-c4cccc(C(F)(F)F)c4)n3n2)CC1 (stereo not given) + Cc1cnc(CNC(=O)c2c(=O)c3ccc(N4CCCN(C)CC4)nc3n3c2sc2ccccc23)cn1

>  <Scale unit>
%

>  <viability, T/C>
90.1

$$$$

(Q) Give its viability, T/C value. Item: CC1COCCN1c1cc(C2(S(C)(=N)=O)CC2)nc(-c2ccnc3[nH]ccc23)n1 (stereo not given) + CN(C)c1ccc(Nc2c3ccc(NC(=O)CCN4CCCC4)cc3nc3cc(NC(=O)CCN4CCCC4)ccc23)cc1
(A) 105

(Q) Need viability, T/C of O=C(c1cc(Cc2n[nH]c(=O)c3ccccc23)ccc1F)N1CCN(C(=O)C2CC2)CC1 + Cc1[nH]c2ccc(F)cc2c1-c1nc2c3cccnc3c3ncccc3c2[nH]1 , thanks.
(A) 89.9

(Q) // lookup viability, T/C for O=c1[nH]cc(F)c(=O)[nH]1 + Cc1cnc(CNC(=O)c2c(=O)c3ccc(N4CCCN(C)CC4)nc3n3c2sc2ccccc23)cn1
(A) 83.7

(Q) Please report the recorded viability, T/C for CC(=O)O[C@H]1C(=O)[C@@]2(C)[C@H]([C@H](OC(=O)c3ccccc3)[C@]3(O)C[C@H](OC(=O)[C@H](O)[C@@H](NC(=O)c4ccccc4)c4ccccc4)C(C)=C1C3(C)C)[C@]1(OC(C)=O)CO[C@@H]1C[C@@H]2O + CN(C)c1ccc(Nc2c3ccc(NC(=O)CCN4CCCC4)cc3nc3cc(NC(=O)CCN4CCCC4)ccc23)cc1 .
(A) 81.5

(Q) Look at this compound and give its reported viability, T/C. Cc1cccc(N(C)C(=O)C2C(O)CCN2c2nc(C)cc(C(F)(F)F)c2C#N)c1 (stereo not given) + CN(C)c1ccc(Nc2c3ccc(NC(=O)CCN4CCCC4)cc3nc3cc(NC(=O)CCN4CCCC4)ccc23)cc1
(A) 103
